test: Steady-state plasma concentrations of polymyxin B (total of B1, B2, B1-Ile) by LC-MS/MS
Format: in vivo
cond: human, iv, patient ID 10, TIME 84.42, DOSE 100 at 0 then 50 every 12 to 72, DUR 1, WT 62, CCR 72.12, ALB 33.9, APACHE 17, single sample, read-out: OUT (observed polymyxin B plasma concentration)
Positions of bridges follow the written chain, without caps; N, C: chain ends. Non-standard residues stand in square brackets, D forms with d. Residues, ends and D or L forms follow the SMILES beside them. *: point of attachment. X1 = CC[C@H](C)CCCCC(=O)*; Dab = NCC[C@H](N)C(=O)O
experimental-endpoint: level at 84.42 h (ng/mL)
One number for each entry, in ng/mL.

Short answer for CC[C@H](C)CCCCC(=O)N[C@@H](CCN)C(=O)N[C@H](C(=O)N[C@@H](CCN)C(=O)N[C@H]1CCNC(=O)[C@H]([C@@H](C)O)NC(=O)[C@H](CCN)NC(=O)[C@H](CCN)NC(=O)[C@H](CC(C)C)NC(=O)[C@@H](Cc2ccccc2)NC(=O)[C@H](CCN)NC1=O)[C@@H](C)O [polymyxin B] (X1-[Dab]T[Dab][Dab][Dab][dF]L[Dab][Dab]T; lactam 4-C) : level at 84.42 h was 3890

###

test: Steady-state plasma concentrations of polymyxin B (total of B1, B2, B1-Ile) by LC-MS/MS
Assay type: in vivo
cond: human, iv, patient ID 10, TIME 79, DOSE 100 at 0 then 50 every 12 to 72, DUR 1, WT 62, CCR 72.12, ALB 33.9, APACHE 17, single sample, read-out: OUT (observed polymyxin B plasma concentration)
Description: We gather data from critically ill patients (≥18 years old) who were given intravenous drip polymyxin B treatment with blood concentration monitoring at the hospital from November 2021 to September 2022. […] According to previous studies, total polymyxin B1, polymyxin B2, and polymyxin B1-Ile concentrations in human blood plasma were quantified using LC-MS/MS ([Meng et al., 2016]; [Hee et al., 2017]). […]
Positions of bridges follow the written chain, without caps; N, C: chain ends. Non-standard residues stand in square brackets, D forms with d. Residues, ends and D or L forms follow the SMILES beside them. *: point of attachment. X1 = CC[C@H](C)CCCCC(=O)*; Dab = NCC[C@H](N)C(=O)O
experimental-endpoint: level at 79 h (ng/mL)
Numbers only, in ng/mL.

Short answer for CC[C@H](C)CCCCC(=O)N[C@@H](CCN)C(=O)N[C@H](C(=O)N[C@@H](CCN)C(=O)N[C@H]1CCNC(=O)[C@H]([C@@H](C)O)NC(=O)[C@H](CCN)NC(=O)[C@H](CCN)NC(=O)[C@H](CC(C)C)NC(=O)[C@@H](Cc2ccccc2)NC(=O)[C@H](CCN)NC1=O)[C@@H](C)O [polymyxin B] (X1-[Dab]T[Dab][Dab][Dab][dF]L[Dab][Dab]T; lactam 4-C) : level at 79 h was 6230

###

test: Steady-state plasma concentrations of polymyxin B (total of B1, B2, B1-Ile) by LC-MS/MS
Type: in vivo
cond: human, iv, 75 mg, patient ID 15, TIME 74.33, after DOSE 75 at 73 (DUR 1, ADDL 4, II 12), WT 50, CCR 35.85, ALB 29.5, APACHE 39, single measurement, read-out: OUT (observed polymyxin B plasma concentration)
Positions of bridges follow the written chain, without caps; N, C: chain ends. Non-standard residues stand in square brackets, D forms with d. Residues, ends and D or L forms follow the SMILES beside them. *: point of attachment. X1 = CC[C@H](C)CCCCC(=O)*; Dab = NCC[C@H](N)C(=O)O
experimental-endpoint: level at 74.33 h

Short answer for CC[C@H](C)CCCCC(=O)N[C@@H](CCN)C(=O)N[C@H](C(=O)N[C@@H](CCN)C(=O)N[C@H]1CCNC(=O)[C@H]([C@@H](C)O)NC(=O)[C@H](CCN)NC(=O)[C@H](CCN)NC(=O)[C@H](CC(C)C)NC(=O)[C@@H](Cc2ccccc2)NC(=O)[C@H](CCN)NC1=O)[C@@H](C)O [polymyxin B] (X1-[Dab]T[Dab][Dab][Dab][dF]L[Dab][Dab]T; lactam 4-C) : level at 74.33 h was 8900 ng/mL

These data points were gathered from paper PMC10090446.
